From: patent US20250099420A1

Quick reference for EC50 among some molecules
Test system: parental HEK cells
PROTOCOL DETAILS: HEK parental Agonist Counterscreen Assay (non-transfected cells)
Type: cell-based
STATED CONDITIONS: Homo sapiens, HEK293; HEK Agonist Activity section of Table 4 (parental HEK counterscreen)

Field: example entries. Status: answers known.
MOLECULE: O=C(CNC(=O)c1ccc(Br)o1)NC1CCCc2ccccc21 (centres unmarked)
EC50: > 14.9 µM

MOLECULE: COc1ccc(CCn2nc(-c3cccnc3)[nH]c2=O)cc1
EC50: > 14.1 µM

MOLECULE: CCN(CCCNC(=O)CN1CCC(Cc2ccccc2C)C1=O)c1cccc(C)c1 (centres unmarked)
EC50: > 14.1 µM

Item under review: COc1cc(C(=O)NNC(=O)CSc2ccc(C)cc2)cc(OC)c1C . Reported EC50?
> 15 µM

Further, for CCc1cc(C2=C/C(=C/c3c(OC)ccc4ccccc34)C(=O)O2)cc(OC)c1OC ?
> 12.2 µM

---

System: parental HEK cells
PROTOCOL DETAILS: HEK parental Agonist Counterscreen Assay (non-transfected cells)
Type: cell-based
STATED CONDITIONS: HEK Agonist Activity section of Table 4 (parental HEK counterscreen)
pEC50: −log10 of the molar value.
A collection of compounds and their measured pEC50

Find the recorded pEC50 belonging to Cc1ccccc1NC(=O)CSC1=C(C#N)C(c2ccccc2C(F)(F)F)C2=C(CCCC2=O)N1 (stereo not drawn) and report it.
< 4.92

Lookup N[C@H](Cc1ccccc1Cl)c1nc2ccc(-c3ccncc3)cc2[nH]1.O=C(O)C(F)(F)F.O=C(O)C(F)(F)F
< 4.85

Try this compound too: COc1ccc(CCNC(=O)CC(=O)NCCc2ccc(OC)cc2)cc1
< 4.82

Now the same for CN(C)c1ccc(NC(=O)Cn2cc(C=O)c3ccccc32)cc1
< 4.85

Entry to check: CN(C)CCOc1cc(NC(=O)C2COc3ccccc3C2)ccc1-c1cn[nH]c1.O=C(O)C(F)(F)F.O=C(O)C(F)(F)F (stereo not drawn)
< 4.85

Could you do the same for COc1ccc(NC(=O)Cn2ncc3c2-c2ccccc2OC3)cc1Cl , please?
< 4.85

COc1ccc2c(c1)C[C@H](C(=O)Nc1ccc(-c3cn[nH]c3)cc1OCC1CNC1)NC2.O=C(O)C(F)(F)F.O=C(O)C(F)(F)F.O=C(O)C(F)(F)F , same question.
< 4.85

Same for CSc1cccc(NC(=O)C2C3C=CC4(O3)C2C(=O)N(C(C)c2ccccc2)C4C(=O)NC2CCCC(C)C2C)c1 (stereo not drawn)
< 4.87

And what about the compound CC12C=CC3(CN(Cc4ccccc4)C(=O)C3C1C(=O)NCc1ccco1)O2 (stereo not drawn) ?
< 4.87

Consider next the compound COc1ccc(CCC(=O)Nc2ccc(/C(N)=N/O)cc2)cc1 in the same way.
< 4.85

// next record COc1ccc2c(c1)C[C@H](C(=O)Nc1ccc(-c3cn[nH]c3)cc1OCCN1CCCC1)NC2.O=C(O)C(F)(F)F.O=C(O)C(F)(F)F.O=C(O)C(F)(F)F
< 4.85

Please do the same for Cc1cccnc1NC(=O)Cn1ncc2c1-c1ccccc1OC2 as well.
< 4.85

---

Tested on: parental HEK cells
PROTOCOL DETAILS: HEK parental Agonist Counterscreen Assay (non-transfected cells)
Type: cell-based
STATED CONDITIONS: HEK Agonist Activity section
MEASURED METRIC: Lipophilic Efficiency (logP)
Format: numeric value only, no unit, no commentary.

Reference set (6 entries):
COMPOUND: CCOC(=O)C1CCN(C(=O)C2CC(Cc3cccc4ccccc34)=NO2)CC1 (stereo not drawn)
Lipophilic Efficiency (logP): 1.69
//
COMPOUND: Cc1cc(C)c(/C=C2/NC(=N)NC2=O)c(C)c1
Lipophilic Efficiency (logP): 1.45
//
COMPOUND: O=C(C1CC(Cc2cccc3ccccc23)=NO1)N1CCC(C(O)Cc2ccccc2)CC1 (stereo not drawn)
Lipophilic Efficiency (logP): 0.41
//
COMPOUND: C=C1N=C(NC2CCCCCC2)c2ccccc2N1
Lipophilic Efficiency (logP): 0.98
//
COMPOUND: CC(C)(C)OC(=O)NNC(=O)COCc1ccc(Cl)c(Cl)c1
Lipophilic Efficiency (logP): 1.32
//
COMPOUND: CCOC(=O)c1ccc(NC(=O)Cn2c(C)c(C=O)c3ccccc32)cc1
Lipophilic Efficiency (logP): 1.37

Please report the recorded Lipophilic Efficiency (logP) for CC1=NNC(=O)C1CC(=O)N/N=C/c1c(Cl)cccc1Cl (stereo not drawn) .
3.00

O=C(c1ccccc1)C1CCCCC1S(=O)(=O)O (stereo not drawn) , same question.
2.58

Next record, please: CC12C=CC3(CN(Cc4ccccc4)C(=O)C3C1C(=O)NCc1ccco1)O2 (stereo not drawn)
3.51

---

Test system: parental HEK cells
PROTOCOL DETAILS: HEK parental Agonist Counterscreen Assay (non-transfected cells)
Type: cell-based
STATED CONDITIONS: HEK Agonist Activity section
Excerpt: The high control for the agonist counterscreen was Forskolin not acetylcholine.
Outcome: 1 for Lipophilic Efficiency (logP) of at least 2; -1 for anything lower.

Study these solved cases before continuing.
COMPOUND: O=C(Cc1cccc2ccccc12)Nc1nnc(-c2cccs2)o1 [SR-01000012264]
GROUP LABEL: -1
//
COMPOUND: Cc1ccc(NC(=O)NNC(=O)COc2ccc(Cl)cc2)c(C)c1 [SR-01000309617]
GROUP LABEL: -1
//
COMPOUND: COc1ccc(C(C)N2CC34C=CC(O3)C(C(=O)OCC(C)C)C4C2=O)cc1 (stereo not drawn) [SR-01000114500]
GROUP LABEL: 1
//
COMPOUND: CCOC(=O)C1C2C=CC3(CN(C(C)c4ccc(Br)cc4)C(=O)C13)O2 (stereo not drawn) [SR-01000114492]
GROUP LABEL: 1
//
COMPOUND: C=C(Nc1ccc(-c2cn[nH]c2)cc1)N(C)Cc1cccc(C(=O)CC)c1 [SR-00000007008]
GROUP LABEL: -1
//
COMPOUND: O=C(CC1CCN(Cc2ccccc2O)C1=O)C1CCC(c2cccc(O)c2)C(O)C1 (stereo not drawn) [SR-01000151350]
GROUP LABEL: -1
//
COMPOUND: CS(=O)(=O)c1cccc(C(=O)NCCCN2CCc3ccccc32)c1 [SR-01000387617]
GROUP LABEL: 1
//
COMPOUND: O=c1c2c([nH]c3nc(NCc4ccccc4Cl)nn13)CCC2 [SR-01000153956]
GROUP LABEL: -1
//
COMPOUND: Cc1cccc(NC(=S)NNC(=O)CSCc2cccc3ccccc23)c1 [SR-07000002775]
GROUP LABEL: -1
//
COMPOUND: CCCCCCC(=O)NNC(=O)c1c(O)c2ccccc2n(CCC)c1=O [SR-01000360839]
GROUP LABEL: 1

Exam item: decide whether the reported Lipophilic Efficiency (logP) for O=C(CCC1CCCC1)NNC(=O)CSc1ccc(Cl)cc1 [SR-01000069439] is at least 2.
-1

Also O=C(CCc1nc2cccnc2n1Cc1cccs1)NCc1ccc2c(c1)OCO2 [SR-01000151666] , if possible.
-1

Next compound up: CC(Oc1ccc(Cl)cc1Cl)C(=O)NNC(=O)c1ccc(F)cc1 (stereo not drawn) [SR-01000520452]
-1

Also CCCc1ccc(NC(=O)CCc2nc3c(c(=O)n2C)CCC3)cc1 [SR-01000017533] , if possible.
1

---

SYSTEM UNDER TEST: GPR139 (Homo sapiens, UniProt Q6DWJ6)
Sequence (Q6DWJ6 whole entry): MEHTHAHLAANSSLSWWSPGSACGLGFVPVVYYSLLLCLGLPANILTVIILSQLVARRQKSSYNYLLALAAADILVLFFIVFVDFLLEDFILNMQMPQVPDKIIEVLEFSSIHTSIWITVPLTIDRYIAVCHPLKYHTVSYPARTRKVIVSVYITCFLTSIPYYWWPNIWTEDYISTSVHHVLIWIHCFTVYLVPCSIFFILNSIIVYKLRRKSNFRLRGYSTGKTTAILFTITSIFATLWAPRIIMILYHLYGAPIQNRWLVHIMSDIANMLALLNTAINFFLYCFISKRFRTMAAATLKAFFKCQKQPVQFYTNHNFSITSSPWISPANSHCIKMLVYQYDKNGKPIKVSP
PROTOCOL DETAILS: GPR139 Agonist titration / agonist counterscreen assay (calcium detection, HEK-GPR139 cells)
Assay type: cell-based
Design: expressed in transfected cells; host or cells: HEK Aequorin cells, Maxcyte transient transfection
STATED CONDITIONS: GPR139 Agonist Activity
MEASURED METRIC: Lipophilic Efficiency (logD)
Just the number, please, no unit attached.

In the examples that follow, each entry is paired with its recorded Lipophilic Efficiency (logD).
MOLECULE: CN(C)CCOc1cc(NC(=O)C2COc3ccccc3C2)ccc1-c1cn[nH]c1.O=C(O)C(F)(F)F.O=C(O)C(F)(F)F (centres unmarked)
MEASURED METRIC: Lipophilic Efficiency (logD)
QUANTITATIVE READOUT: 4.48
--
MOLECULE: Cc1cccc(C(=O)NNC(=O)CCc2ccccc2)c1
MEASURED METRIC: Lipophilic Efficiency (logD)
QUANTITATIVE READOUT: 3.32
--
MOLECULE: CC(CCC(=O)C12CC3CC(CC(C3)C1)C2)CCc1ccc2ccccc2c1 (centres unmarked)
MEASURED METRIC: Lipophilic Efficiency (logD)
QUANTITATIVE READOUT: 2.60
--
MOLECULE: C=C(CCC)c1ccc(CCC2=NNC(c3ccccc3)N2C)cc1 (centres unmarked)
MEASURED METRIC: Lipophilic Efficiency (logD)
QUANTITATIVE READOUT: 3.88
--
MOLECULE: O=C(Cn1ncc2c1-c1ccccc1OC2)Nc1ccc(CCO)cc1
MEASURED METRIC: Lipophilic Efficiency (logD)
QUANTITATIVE READOUT: 3.66
--
MOLECULE: Cc1onc(-c2ccccc2Cl)c1C(=O)N1CCC(Cn2ccnc2C)CC1
MEASURED METRIC: Lipophilic Efficiency (logD)
QUANTITATIVE READOUT: 3.41
--
MOLECULE: Nc1ccc2c(C(F)(F)F)cc(=O)oc2c1
MEASURED METRIC: Lipophilic Efficiency (logD)
QUANTITATIVE READOUT: 3.74
--
MOLECULE: CC1CCCCN1C(=O)CN1C(=O)C2(CCc3ccccc3C2)NC1=S (centres unmarked)
MEASURED METRIC: Lipophilic Efficiency (logD)
QUANTITATIVE READOUT: 4.10
--
MOLECULE: Cc1cc(=O)n2nc(NCc3ccccc3Cl)nc2[nH]1
MEASURED METRIC: Lipophilic Efficiency (logD)
QUANTITATIVE READOUT: 3.22
--
MOLECULE: CC12C=CC3(CN(Cc4ccccc4)C(=O)C3C1C(=O)NCC1COc3ccccc3O1)O2 (centres unmarked)
MEASURED METRIC: Lipophilic Efficiency (logD)
QUANTITATIVE READOUT: 4.47

Any idea what Lipophilic Efficiency (logD) was measured for CCCCC(O)CCNC(=O)C1CC(=O)N(CCc2ccc(C)cc2)C1 (centres unmarked) ?
5.67

Same lookup for COc1cc(OC)cc(C(=O)NNC(=O)CCc2ccccc2)c1 , please.
4.18

CC(C(=O)NCCn1nnn(-c2ccccc2)c1=O)n1nc2ccccc2n1 (centres unmarked) ?
3.07

Record: CCSc1nc2sccn2c(=O)c1C(=O)NC(C)c1ccccc1 (centres unmarked)
2.89

Ok, now COc1ccc(NC(=O)NC(O)(O)c2cccc(C(C)=O)c2)cc1
2.10

Thanks! And O=C(CCc1ccccc1)Nc1nnc(Cc2cccs2)o1 ?
3.39

How about Cc1ccc(NC(=O)NCCCc2ccccc2)cc1 ?
1.36

Then O=C(CC1C(=O)N(c2ccccc2)C(=O)N1Cc1ccc2c(c1)OCO2)Nc1ccc(Cl)cc1 (centres unmarked) ?
1.52
